system: N592; assay: Cytotoxicity against human small-cell lung cancer (SCLC); assay type: functional, cell-based; details: n592
property: pIC50
Entry type: numeric. Quantity: pIC50, the -log10 of concentration in molar units.

Prompt: # get_value(readout= pIC50, system= N592) for CISPLATIN
Completion: 6.17

----------
Quick reference for pIC50 among some molecules
experiment: Cytotoxicity against human SCLC cells resistant to cisplatin (SCLC/CDDP); assay type: functional, cell-based; details: Homo sapiens, SCLC
Entry type: numeric. Quantity: pIC50, the -log10 of concentration in molar units.

Solved entries (count: 5):
>>> value_observed("O=C1c2c(O)ccc(O)c2C(=O)c2c(NCCNCCO)ccc(NCCNCCO)c21")
7.52
>>> value_observed("CC[C@]1(O)C[C@@H]2CN(CCc3c([nH]c4ccccc34)[C@@](C(=O)OC)(c3cc4c(cc3OC)N(C)[C@H]3[C@@](O)(C(=O)OC)[C@H](OC(C)=O)[C@]5(CC)C=CCN6CC[C@]43[C@@H]65)C2)C1")
8.30
>>> value_observed("COc1cccc2c1C(=O)c1c(O)c3c(c(O)c1C2=O)C[C@@](O)(C(=O)CO)C[C@@H]3O[C@H]1C[C@H](N)[C@H](O)[C@H](C)O1")
7.52
>>> value_observed("CN(C)CCCOc1cc2oc3c(c2cc1Cl)C(=O)c1ccccc1C3=O")
6.23
>>> value_observed("COc1cc([C@@H]2c3cc4c(cc3[C@@H](O[C@@H]3O[C@@H]5CO[C@@H](C)O[C@H]5[C@H](O)[C@H]3O)[C@H]3COC(=O)[C@H]23)OCO4)cc(OC)c1O [ETOPOSIDE]")
5.89

Prompt: Request the reported pIC50 associated with CN(C)CCOc1cc2oc3c(c2c2ccccc12)C(=O)c1ccccc1C3=O
Completion: 5.71

Prompt: Request the reported pIC50 associated with CN(C)CCOc1ccc2c3c(oc2c1)C(=O)c1ccccc1C3=O
Completion: 6.03

Prompt: Request the reported pIC50 associated with CN(C)CCCOc1cc(O)c2c3c(oc2c1)C(=O)c1ccccc1C3=O
Completion: 6.17

Prompt: Request the reported pIC50 associated with CN(C)CCOc1cc(O)c2c3c(oc2c1)C(=O)c1ccccc1C3=O
Completion: 5.59

Prompt: Request the reported pIC50 associated with CN(C)CCCOc1ccc2c3c(oc2c1)C(=O)c1ccccc1C3=O
Completion: 5.59

Prompt: Request the reported pIC50 associated with CCN(CC)CCOc1cc(O)c2c3c(oc2c1)C(=O)c1ccccc1C3=O
Completion: 6.32

Prompt: Request the reported pIC50 associated with CN(C)CCOc1cc2oc3c(c2cc1Cl)C(=O)c1ccccc1C3=O
Completion: 6.21

----------
assay: Cytotoxicity against human SCLC cells resistant to cisplatin (SCLC/CDDP); assay type: functional, cell-based; conditions: Homo sapiens, SCLC
property: IC50

>>> value_observed("O=C1c2ccccc2C(=O)c2c1oc1cc(O)c(Cl)cc21")
"> 3.4 µM"
>>> value_observed("O=C1c2ccccc2C(=O)c2c1oc1cc(O)c3ccccc3c21")
"> 3.2 µM"
>>> value_observed("O=C1c2ccccc2C(=O)c2c1oc1cc3c(cc21)OCO3")
"> 40.3 µM"
>>> value_observed("Cc1cc(O)cc2oc3c(c12)C(=O)c1ccccc1C3=O")
"> 3.5 µM"
>>> value_observed("CC(C)N(CCOc1cc(O)c2c3c(oc2c1)C(=O)c1ccccc1C3=O)C(C)C")
"1.13 µM"
>>> value_observed("CN(C)CCCOc1cc2oc3c(c2c2ccccc12)C(=O)c1ccccc1C3=O")
"> 2.5 µM"
>>> value_observed("O=C1c2ccccc2C(=O)c2c1oc1cc(O)ccc21")
"> 3.8 µM"
>>> value_observed("Cc1cc(OCCN(C)C)cc2oc3c(c12)C(=O)c1ccccc1C3=O")
"> 2.6 µM"
>>> value_observed("O=C1c2ccccc2C(=O)c2c1oc1cc(O)cc(O)c21")
"1.28 µM"

Read the next record carefully.
Prompt: Request the reported IC50 associated with O=c1[nH]cc(F)c(=O)[nH]1
Completion: 8.4 µM
